- measured target: T1, HaloTag-ATRX ADD domain (163-292)
- T1 chain: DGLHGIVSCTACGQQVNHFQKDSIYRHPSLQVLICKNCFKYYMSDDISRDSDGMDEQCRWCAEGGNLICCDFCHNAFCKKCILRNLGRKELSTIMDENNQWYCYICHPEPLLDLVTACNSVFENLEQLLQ
- assay details: peptide microarray binding signal (635 nm), min-max normalized on array (fraction of array maximum); higher = stronger binding
- measurement conditions: peptide region: Unmod H1 variant; binder concentration: 50 nM
reported property: peptide microarray binding signal
Just the number, please, no unit attached.

Challenge: Given SHYKVGENADSQI [Unmod H1 variant S H Y K V G E N A D S Q I] , state its recorded peptide microarray binding signal.
Response given: 0.00937

Challenge: Would you kindly share the measured peptide microarray binding signal for KTAKPKKAAPKKK [Unmod H1 variant K T A K P K K A A P K K K] ?
Response given: 0.0174

Challenge: Fill in: peptide microarray binding signal of KAASKAPTKKPKA [Unmod H1 variant K A A S K A P T K K P K A] is ___
Response given: 0.0142

Challenge: Any idea what peptide microarray binding signal was measured for TLVQTKGTGASGS [Unmod H1 variant T L V Q T K G T G A S G S] ?
Response given: 0.0308

Challenge: Please report the recorded peptide microarray binding signal for LNKKASSVETKPG [Unmod H1 variant L N K K A S S V E T K P G] .
Response given: 0.0199

Challenge: Consider the binder shown here: GVSLAALKKALAA [Unmod H1 variant G V S L A A L K K A L A A] What is its recorded peptide microarray binding signal?
Response given: 0.0641

Challenge: # input binder: APAPAEKTPVKKK [Unmod H1 variant A P A P A E K T P V K K K] ; wanted: its peptide microarray binding signal
Response given: 0.021

Challenge: Entry TKKEIKKVATPKK [Unmod H1 variant T K K E I K K V A T P K K] has what peptide microarray binding signal?
Response given: 0.0108

Challenge: Param item = SKKSVKTPKKAKK [Unmod H1 variant S K K S V K T P K K A K K] ; retrieve measured peptide microarray binding signal.
Response given: 0.0224

Challenge: // peptide microarray binding signal lookup, key: AKPKRAKASKKST [Unmod H1 variant A K P K R A K A S K K S T]
Response given: 0.0106

Challenge: I would be grateful if you could share the reported peptide microarray binding signal for PKKAPVKPKAKSS [Unmod H1 variant P K K A P V K P K A K S S] .
Response given: 0.0131
